The origin of these recorded values is patent US7101851.

# measurement target: T1, extracellular domain of the alpha subunit of the human FcεRI (aa 1-176), produced in baculovirus infected … (human, UniProt P12319 26-201, N-linked carbohydrate (NAG on Asn21 seen in the crystal); derivatised with PDEA for thiol coupling to the chip in the biosensor assay)
# T1 construct: range 1-176; Residues 1-176 are probably counted without the signal peptide; also called FcεRIα; soluble FcεRI
# T1 sequence (looked up): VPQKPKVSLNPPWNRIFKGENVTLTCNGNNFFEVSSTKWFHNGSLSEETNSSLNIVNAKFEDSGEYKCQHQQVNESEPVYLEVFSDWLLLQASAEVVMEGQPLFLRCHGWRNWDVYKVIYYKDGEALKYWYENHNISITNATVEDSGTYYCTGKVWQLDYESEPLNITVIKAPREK
# assay name: SPR biosensor (BIAcore), peptide over immobilized FcεRIα, steady-state saturation curve, 4-parameter fit
Where no end group is shown, it is not given here.
measure name: log10 EC50 (log10 of the value in nM)
Heads up, the numbers here are log10 of EC50 in nM units.

>>> measurement("IVCPRLCYVGGKALCPDVCYV-NH2 (disulfide (positions not given here); also: oxidized, disulfide-bonded Cys, pairing not given here) [IGE120]")
2.41

Attention now turns to another entry.
Which log10 EC50 value is on record for VQCPHFCYVGGKALCPDVCYV-NH2 (disulfide (positions not given here); also: oxidized, disulfide-bonded Cys, pairing not given here) [IGE122] ? 2.18
